- Method: Fluorescence of free probe prior to binding to a protein tag
- Format: physicochemical
Could you please report measured Quantum yield of free probe for the items listed next?

[ask] # lookup: Quantum yield of free probe of CN(CCOC(=O)NCc1ccc(COc2nc(N)nc3[nH]cnc23)cc1)c1ccc2nc(/C=C(\C#N)c3nc4ccccc4o3)sc2c1
[reply] <0.001

[ask] For the compound shown here, CC(C)(C)OC(=O)/C(C#N)=C/c1cc2ccc(N(CCC#N)CCOC(=O)NCc3ccc(COc4nc(N)nc5[nH]cnc45)cc3)cc2s1 , give the reported Quantum yield of free probe.
[reply] 0.001

[ask] What value of Quantum yield of free probe has been reported for the following compound? CN(CCOC(=O)NCc1ccc(COc2nc(N)nc3[nH]cnc23)cc1)c1ccc2c(c1)sc1cc(C=C(C#N)C#N)sc12
[reply] <0.001

[ask] Would you mind telling me what Quantum yield of free probe value was observed for CN(CCOC(=O)NCc1ccc(COc2cc(Cl)nc(N)n2)cc1)c1ccc(/C=C(\C#N)c2nc3ccccc3s2)cc1 ?
[reply] <0.001

[ask] So what's the measured Quantum yield of free probe for this one? CN(CCO)c1cc2c(s1)-c1sc(/C=C(/C#N)C(=O)NCc3ccc(COc4nc(N)nc5[nH]cnc45)cc3)cc1C2(C)C [Reference Probe 99, reference compound]
[reply] <0.001

[ask] // returns reported Quantum yield of free probe for input CC1=CC(C)(C)N(CCOC(=O)NCc2ccc(COc3nccc(N)n3)cc2)c2ccc(/C=C(\C#N)c3nc4ccccc4s3)cc21
[reply] 0.0013

Origin of values: patent US11209437B2
